Just for reference, patent US20260200920A1 is where these values come from.

Biological target: human recombinant kinase full-length wildtype AKT1 (Homo sapiens)
Construct: Purified human recombinant kinase full-length wildtype AKT1 was expressed in insect cells
Assay: AKT1 kinase assay (wildtype, TR-FRET, Lance)
Details: 0.6 nM wildtype AKT1, 50 nM Ulight-CREBtide, either 50 μM ATP or 2 mM ATP, 60 min at RT
I'd appreciate it if you could supply IC50 values for the items below.

Lookup: Fill in reported IC50 for this entry: Nc1ncccc1-c1nc2ccc(-c3ccccc3)nc2n1-c1ccc(CCN2CCC(C(=O)O)C2)cc1 (stereo not shown)
Found: < 20 µM

Lookup: Provide IC50 value for the following compound: `Cc1cc(C2CN(C[C@H]3CC[C@H](C(=O)O)CC3)C2)ccc1-n1c(-c2cccnc2N)nc2ccc(-c3ccccc3)cc21`
Found: < 20 µM

Lookup: Let me know recorded IC50 for `Nc1ncccc1-c1nc2ccc(-c3ccccc3)nc2n1-c1ccc(NC(=O)[C@H]2CC[C@H](C(N)=O)CC2)nc1` , thanks.
Found: < 20 µM

Lookup: Report IC50, nothing else, for this compound: `Nc1ncccc1-c1nc2ccc(-c3ccccc3)nc2n1-c1ccc(C(=O)N2CCC(C(=O)O)CC2)cc1`
Found: < 20 µM

----------
Target: human recombinant kinase full-length wildtype AKT1 (Homo sapiens, UniProt P31749)
Construct: Purified human recombinant kinase full-length wildtype AKT1 was expressed in insect cells
Sequence (P31749 whole entry): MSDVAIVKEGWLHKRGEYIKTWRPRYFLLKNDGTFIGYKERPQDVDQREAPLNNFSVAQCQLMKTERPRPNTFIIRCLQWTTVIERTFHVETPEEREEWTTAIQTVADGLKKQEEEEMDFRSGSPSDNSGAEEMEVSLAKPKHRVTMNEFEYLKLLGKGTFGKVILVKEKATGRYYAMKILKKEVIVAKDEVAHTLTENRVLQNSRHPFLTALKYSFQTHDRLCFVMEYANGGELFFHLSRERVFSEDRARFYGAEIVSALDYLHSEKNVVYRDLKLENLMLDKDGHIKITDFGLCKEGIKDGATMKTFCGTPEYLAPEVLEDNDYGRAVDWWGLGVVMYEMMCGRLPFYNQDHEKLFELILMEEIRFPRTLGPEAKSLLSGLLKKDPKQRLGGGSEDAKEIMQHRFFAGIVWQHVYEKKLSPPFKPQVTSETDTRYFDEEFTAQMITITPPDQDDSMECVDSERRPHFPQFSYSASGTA
Experiment: AKT1 kinase assay (wildtype, TR-FRET, Lance)
Conditions: 0.6 nM wildtype AKT1, 50 nM Ulight-CREBtide, either 50 μM ATP or 2 mM ATP, 60 min at RT
pIC50: −log10 of the molar value.
measuredParameter: pIC50

Lookup: Identify measured pIC50 corresponding to `Cc1cc(C2CN(C[C@H]3CC[C@@H](C(=O)O)CC3)C2)ccc1-n1c(-c2cccnc2N)nc2ccc(-c3ccccc3F)nc21`
Found: > 4.70

Lookup: Give the value of pIC50 reported for the following: Nc1ncccc1-c1nc2ccc(-c3ccccc3)nc2n1-c1ccc(CN2CCC(CC(=O)O)C2)cc1 (centres unmarked)
Found: > 4.70

Lookup: Tell me pIC50 reported for `Cc1nc(NC(=O)[C@H]2CC[C@H](C(=O)O)CC2)ccc1-n1c(-c2cccnc2N)nc2ccc(-c3ccccc3)nc21`
Found: > 4.70

Lookup: Using the record for Cc1nc(NC(=O)C2CCC(C)(C(=O)O)CC2)ccc1-n1c(-c2cccnc2N)nc2ccc(-c3ccccc3)nc21 (centres unmarked) , state its measured pIC50.
Found: > 4.70

Lookup: Provide only the value of recorded pIC50 for `C[C@]1(C(=O)O)CC[C@H](CN2CC(c3ccc(-n4c(-c5cccnc5N)nc5ccc(-c6ccccc6)nc54)cc3)C2)CC1`
Found: > 4.70

Lookup: Supply reported pIC50 belonging to this compound: `Nc1ncccc1-c1nc2ccc(-c3ccccc3)cc2n1-c1ccc(C2CN(C[C@H]3CC[C@H](C(=O)O)CC3)C2)cc1`
Found: > 4.70

Lookup: Name the recorded pIC50 of the item `Nc1ncccc1-c1nc2ccc(C3CCCC3)nc2n1-c1ccc(NC(=O)[C@H]2CC[C@H](C(=O)O)CC2)nc1` in your answer.
Found: > 4.70

Lookup: Return pIC50 for the following compound: `Cc1cc2nc(-c3cccnc3N)n(-c3ccc(C4CN(C[C@H]5CC[C@H](C(=O)O)CC5)C4)cc3)c2nc1-c1ccccc1`
Found: > 4.70

Lookup: Please give the documented pIC50 of `Nc1ncccc1-c1nc2ccc(-c3ccccc3F)nc2n1-c1ccc(C2CN(CC34CCC(C(=O)O)(CC3)CC4)C2)cc1`
Found: > 4.70

Lookup: Query pIC50 for `Cc1cc(C2CN(C[C@H]3CC[C@@H](C(=O)O)CC3)C2)ccc1-n1c(-c2cccnc2N)nc2ccc(-c3ccccc3)cc21`
Found: > 4.70

Lookup: // Input: Nc1ncccc1-c1nc2ccc(-c3ccccc3F)nc2n1-c1ccc([C@@H]2CCN(C[C@H]3CC[C@@H](C(=O)O)CC3)C2)cc1 (single isomer, unassigned) . Output its pIC50 only.
Found: > 4.70

Lookup: State, in one line, measured pIC50 of CC1(C)CN(Cc2ccc(-n3c(-c4cccnc4N)nc4ccc(-c5ccccc5)nc43)cc2)CCC1C(=O)O (centres unmarked)
Found: > 4.70

Lookup: Please list pIC50 recorded for the compound `Nc1ncccc1-c1nc2ccc(-c3ccccc3)nc2n1-c1ccc(NC(=O)C23CCC(C(=O)O)(C2)C3)nc1`
Found: > 4.70

Lookup: Could you please provide reported pIC50 for `Nc1ncccc1-c1nc2ccc(-c3ccccc3)nc2n1-c1ccc(CNC(=O)C2CC(=O)CC(=O)C2)cc1` ? Thanks!
Found: > 4.70

Lookup: Dear colleague, please send me the reported pIC50 for Nc1ncccc1-c1nc2ccc(-c3ccccc3F)nc2n1-c1ccc([C@H]2CCN(C[C@H]3CC[C@@H](C(=O)O)CC3)C2)cc1 (single isomer, unassigned) when you can.
Found: > 4.70

Lookup: Annotate the compound Nc1ncccc1-c1nc2ccc(-c3ccccc3)nc2n1-c1ccc(NC(=O)C2CCCC(C(=O)O)C2)nc1 (centres unmarked) with its measured pIC50.
Found: > 4.70

Lookup: Supply reported pIC50 belonging to this compound: `Cc1nc(-n2c(-c3cccnc3N)nc3ccc(-c4ccccn4)cc32)ccc1NC(=O)[C@H]1CC[C@H](C(=O)O)CC1`
Found: > 4.70

Lookup: Supply recorded pIC50 for CC1(c2ccc(-n3c(-c4cccnc4N)nc4ccc(-c5ccccc5)nc43)cc2)CN(CC2CC3(C2)CC(C(=O)O)C3)C1 (centres unmarked) here.
Found: > 4.70

Lookup: Could you please provide reported pIC50 for Nc1ncccc1-c1nc2ccc(-c3ccccc3)nc2n1-c1ccc(C2CCN(CC3CCC(C(=O)O)CC3)C2)cc1 (centres unmarked) ? Thanks!
Found: > 4.70

Lookup: Specify reported pIC50 for the compound shown: Nc1ncccc1-c1nc2ccc(-c3ccccc3)nc2n1-c1ccc(NC(=O)C2CC3C(C2)C3C(=O)O)nc1 (centres unmarked)
Found: > 4.70

Lookup: Please supply the value of reported pIC50 for the item `Cc1nc(NC[C@@H]2CC[C@H](C(=O)O)C2)ccc1-n1c(-c2cccnc2N)nc2ccc(-c3ccccc3)nc21`
Found: > 4.70

Lookup: Please report pIC50 for the following compound: `Cc1nc(N[C@H]2CC[C@@H](C(=O)O)CC2)ccc1-n1c(-c2cccnc2N)nc2ccc(-c3ccccc3)nc21`
Found: > 4.70

Lookup: Provide one value: measured pIC50 of CC1(C)CN(C(=O)c2ccc(-n3c(-c4cccnc4N)nc4ccc(-c5ccccc5)nc43)cn2)CCC1C(=O)O (centres unmarked)
Found: > 4.70

Lookup: Please indicate pIC50 recorded for Nc1ncccc1-c1nc2ccc(-c3ccccc3)nc2n1-c1ccc(N[C@H]2CC[C@@H](C(=O)O)CC2)nc1 (single isomer, unassigned)
Found: > 4.70

Lookup: Kindly indicate its recorded pIC50. Item: `Cc1nc(CN(C)[C@H]2CC[C@H](C(=O)O)CC2)ccc1-n1c(-c2cccnc2N)nc2ccc(-c3ccccc3)nc21`
Found: > 4.70

Lookup: Identify measured pIC50 corresponding to `Cc1nc(NC(=O)[C@H]2CC[C@H](C(=O)O)CC2)ccc1-n1c(-c2cccnc2N)nc2ccc(-c3ccccc3)cc21`
Found: > 4.70
